Assay: NCI Yeast Anticancer Drug Screen. Data for the CLN2oe strain (AID 163);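 further: 0% = growth of vehicle-only control cultures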
Conditions: S. cerevisiae CLN2oe strain, at 3.7 µM, stronger effect = higher value
Experimental: Growth inhibition of yeast strains with defined genetic alterations is measured as a screen for potential anti-cancer activity. Selected strains with alterations in DNA damage repair or cell cycle control were exposed to compounds and growth inhibition was measured relative to vehicle treated controls. The strain used in this assay is CLN2oe
The panel holds about 79,000 compounds, 15% with a hit somewhere; the sample as a whole holds those more often. Active and inactive are the calls of the source. No stated cut-off is given here; in the data, active means growth inhibition above about 70%; inactive means the rest.
MEASUREMENT_NAME: growth inhibition

O=C1N=C2SC=C(NC(=S)Nc3ccccc3)N2NC12c1ccccc1-c1ccccc12    4% (inactive)
Clc1ccc(NCNC2Nc3ccccc3N2)cc1Cl    -13% (inactive)
CC[N+](CC)(CC)c1ccccc1    5% (inactive)

What value of measured growth inhibition is listed for "O=C1c2ccccc2C(=O)c2cc(CCl)ccc21" ?
-5% (inactive)

Any idea what growth inhibition was measured for Nc1ncnc2c1ncn2C1OC(CO)CC1O (configuration not stated) ?
9% (inactive)

Which growth inhibition is listed for COc1cc([C@@H]2c3cc4c(cc3[C@H](OC3OC5COC(C(C)C)OC5C(O)C3O)C3COC(=O)[C@@H]32)OCO4)cc(OC)c1O (some centres not stated) ?
3% (inactive)

Fill in the blank: the reported growth inhibition of "Cc1cccc(/C=N/NC(=S)N2CCCC2)n1" is ____.
-31% (inactive)

* * *

Experiment: NCI Yeast Anticancer Drug Screen. Data for the sgs1 mgt1 strain (AID 161);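 further: 0% = growth of cultures given vehicle only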
Conditions: S. cerevisiae sgs1 mgt1 strain, at 50.0 µM, stronger effect = higher value
This is part of a sample that, as a whole, favours compounds with a hit. Of some 79,000 tested, about 15% had one in any assay.
MEASUREMENT_NAME: growth inhibition (%)
// note: answer is a bare numeric in %

The following compounds have reported results that may help.
CN(C)c1ccc2c(SCC(=O)OCC(=O)[C@@]3(O)CC[C@H]4[C@@H]5CCC6=CC(=O)C=C[C@]6(C)[C@H]5C(=O)C[C@@]43C)c3ccc(N(C)C)cc3nc2c1    78.7
Cc1cc(O)c(C(C)C)cc1C1(c2cc(C(C)C)c(O)cc2C)OC(=O)c2ccccc21    82
Nc1ccc(F)cc1S    80.5

--- query ---
Could you share which growth inhibition value was measured for "O=Cc1ccc2c(c1)C(=O)c1ccccc1C2=O" ?
39.5

* * *

Test: NCI Yeast Anticancer Drug Screen. Data for the mec2-1 strain (AID 157)
Details: S. cerevisiae mec2-1 strain, at 1.2 µM, stronger effect = higher value
The panel holds about 79,000 compounds, 15% with a hit somewhere; the sample as a whole holds those more often.
Form field: growth inhibition (one value per entry).
Write down the numeric answer in % and omit the unit.

As a guide, the following entries are already answered.
CCCC/C=C/C(C)(C(=O)OCC)C(=O)OCC    -2
OC1(c2ccccc2)CCCc2ccc(Cl)cc21 (stereo unspecified)    2
O=C1C=C(N2CCN(c3ccccn3)CC2)C(=O)c2c(O)ccc(O)c21    7
CN(CCN(C)Cc1ccccc1)Cc1ccccc1    -33
NC1CCCCC1N.Nc1c(N=Nc2ccc(-c3ccc(N=Nc4cc(S(=O)(=O)[O-])c5ccccc5c4N)cc3)cc2)cc(S(=O)(=O)[O-])c2ccccc12.[OH3+].[OH3+].[Pt+4]    0

Data request, read-out growth inhibition, for "CC(/C=C/c1ccccc1)=N\NC(N)=S"
-2
